Target: GPR139 (Gq activation) (Homo sapiens)
Construct: expressed in transfected cells; host or cells: HEK293A (transient, Lipofectamine 2000)
Sequence (Q6DWJ6 1-353): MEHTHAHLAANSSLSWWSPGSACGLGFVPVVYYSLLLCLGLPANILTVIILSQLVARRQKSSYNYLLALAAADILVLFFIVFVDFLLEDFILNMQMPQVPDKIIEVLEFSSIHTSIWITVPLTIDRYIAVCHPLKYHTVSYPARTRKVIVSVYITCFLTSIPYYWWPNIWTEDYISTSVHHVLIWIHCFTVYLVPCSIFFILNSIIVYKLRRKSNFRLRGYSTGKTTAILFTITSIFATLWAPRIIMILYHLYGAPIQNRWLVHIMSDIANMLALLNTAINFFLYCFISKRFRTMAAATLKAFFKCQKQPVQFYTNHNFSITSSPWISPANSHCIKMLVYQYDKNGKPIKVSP
Assay: BRET G protein activation (dissociation) assay, Gq, HEK293A
Type: cell-based
Conditions: HEK293-A; normalized to JNJ-63533054 (JNJ(S))
Emax values for the compounds below.
Note: unit % is implicit; provide only the numeric part.

What reported Emax corresponds to Cc1cscc1-c1nc(CC(=O)N[C@H](C)c2ccccc2)no1 [1.1(R)] on GPR139 (Gq activation) (Homo sapiens)? 21

Another compound to check: C[C@@H](NC(=O)CNC(=O)c1cccc(Cl)c1)c1ccccc1 [JNJ(R), reference compound] 22

Another compound to check: CC(NC(=O)CNC(=O)c1cccc(Cl)c1)c1ccccc1 (stereo not shown) [JNJ-63533054, reference compound] 42

Another compound to check: Cc1cscc1-c1nc(CC(=O)N[C@@H](C)c2ccccc2)no1 [1.1(S)] 35

---

Molecular target: GPR139 (Gi3 activation) (Homo sapiens, UniProt Q6DWJ6)
Construct: expressed in transfected cells; host or cells: HEK293A (transient, Lipofectamine 2000)
Assay: BRET G protein activation (dissociation) assay, Gi3, HEK293A
Format: cell-based
Conditions: Supplementary Table 6; read-out: pEC50 Gi3 (converted)
Endpoint Name: EC50
Please answer using the number first and the unit second.

Cc1cscc1-c1nc(CC(=O)N[C@@H](C)c2ccccc2)no1 [1.1(S)] :: 50.1 nM
Cc1cscc1-c1nc(CC(=O)N[C@H](C)c2ccccc2)no1 [1.1(R)] :: 794 nM

What reported EC50 corresponds to CC(NC(=O)CNC(=O)c1cccc(Cl)c1)c1ccccc1 (stereo not shown) [JNJ-63533054, reference compound] on GPR139 (Gi3 activation) (Homo sapiens, UniProt Q6DWJ6)? 100 nM

Another molecule to check: C[C@@H](NC(=O)CNC(=O)c1cccc(Cl)c1)c1ccccc1 [JNJ(R), reference compound] 3980 nM

---

Molecular target: GPR139 (Gq activation) (Homo sapiens, UniProt Q6DWJ6)
Construct: expressed in transfected cells; host or cells: HEK293A (transient, Lipofectamine 2000)
Assay: BRET G protein activation (dissociation) assay, Gq, HEK293A
Assay type: cell-based
Conditions: Supplementary Table 6
Endpoint Name: EC50 (µM)
Note: unit µM is implicit; provide only the numeric part.

Below, 3 compounds whose answers are already recorded.
C[C@@H](NC(=O)CNC(=O)c1cccc(Cl)c1)c1ccccc1 [JNJ(R), reference compound] :: 10
Cc1cscc1-c1nc(CC(=O)N[C@@H](C)c2ccccc2)no1 [1.1(S)] :: 0.2
Cc1cscc1-c1nc(CC(=O)N[C@H](C)c2ccccc2)no1 [1.1(R)] :: 2.51

// next item, EC50 requested
EC50 lookup needed for CC(NC(=O)CNC(=O)c1cccc(Cl)c1)c1ccccc1 (stereo not shown) [JNJ-63533054, reference compound] , thanks. 0.158

---

Experiment: Bioanalysis of compounds in mouse plasma and brain
Format: in vivo
Details: both sexes, C57BL/6 J, plasma, intraperitoneal, one hour after 30 mg/kg i.p., read-out: total plasma concentration (Cplasma)
Endpoint Name: concentration at 1 h (µM)
Note: unit µM is implicit; provide only the numeric part.

concentration at 1 h lookup needed for CC(NC(=O)CNC(=O)c1cccc(Cl)c1)c1ccccc1 (stereo not shown) [JNJ-63533054, reference compound] , thanks. 20.5

---

Target: GPR139 (Homo sapiens)
Experiment: Signaling pathway panel at GPR139 (Gi2, Gi3, GoA, Gq, G12, Ca2+, arrestin-3), HEK293A
Assay type: cell-based
Parameters: expressed in transfected cells; host or cells: HEK293A (transient, Lipofectamine 2000)
Conditions: range over pathways; read-out: EC50 for stimulating the individual signaling pathways at GPR139
Endpoint Name: EC50

What reported EC50 corresponds to Cc1cscc1-c1nc(CC(=O)N[C@@H](C)c2ccccc2)no1 [1.1(S)] on GPR139 (Homo sapiens)? 13 to 200 nM

---

Emax values for the molecules below.
Target: GPR139 (Gi3 activation) (Homo sapiens)
Construct: expressed in transfected cells; host or cells: HEK293A (transient, Lipofectamine 2000)
Test: BRET G protein activation (dissociation) assay, Gi3, HEK293A
Format: cell-based
Conditions: HEK293-A; normalized to JNJ-63533054 (JNJ(S))
Note: unit % is implicit; provide only the numeric part.

Below, 3 molecules whose answers are already recorded.
C[C@@H](NC(=O)CNC(=O)c1cccc(Cl)c1)c1ccccc1 [JNJ(R), reference compound] :: 35
CC(NC(=O)CNC(=O)c1cccc(Cl)c1)c1ccccc1 (stereo not shown) [JNJ-63533054, reference compound] :: 56
Cc1cscc1-c1nc(CC(=O)N[C@H](C)c2ccccc2)no1 [1.1(R)] :: 37

// next item, Emax requested
Emax lookup needed for Cc1cscc1-c1nc(CC(=O)N[C@@H](C)c2ccccc2)no1 [1.1(S)] , thanks. 45

---

EC50 values for the molecules below.
Target: GPR139 (Homo sapiens, UniProt Q6DWJ6)
Sequence (Q6DWJ6 1-353): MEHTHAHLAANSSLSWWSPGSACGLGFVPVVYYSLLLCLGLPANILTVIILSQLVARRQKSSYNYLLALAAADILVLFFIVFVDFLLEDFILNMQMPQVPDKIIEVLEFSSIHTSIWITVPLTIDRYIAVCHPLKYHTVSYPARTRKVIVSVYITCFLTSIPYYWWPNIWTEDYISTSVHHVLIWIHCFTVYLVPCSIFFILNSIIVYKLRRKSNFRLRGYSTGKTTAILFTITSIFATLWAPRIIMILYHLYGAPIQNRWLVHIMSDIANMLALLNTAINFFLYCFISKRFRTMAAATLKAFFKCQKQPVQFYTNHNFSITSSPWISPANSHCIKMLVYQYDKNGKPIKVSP
Assay: Ca2+ mobilization assay, agonist mode, stable GPR139-CHOk1 cell line
Assay type: cell-based
Conditions: Supplementary Table 2; mean ± SEM; read-out: pEC50 Ca2+ (converted)
Note: unit µM is implicit; provide only the numeric part.

Cc1cc(-c2nc(CC(=O)NC(C)c3ccccc3)no2)n(C)n1 (centres unmarked) :: 0.631
COc1ccc(-c2nc(CC(=O)NC(C)c3ccccc3)no2)nc1 (centres unmarked) :: 5.01

EC50 lookup needed for Cc1cc(-c2nc(CC(=O)NC(C)c3ccccc3)no2)no1 (centres unmarked) , thanks. 1.58

Another molecule to check: Cc1c(-c2nc(CC(=O)NC(C)c3ccccc3)no2)sc2nccn12 (centres unmarked) 1.26

Another molecule to check: Cc1csc(-c2nc(CC(=O)NC(C)c3ccccc3)no2)c1 (centres unmarked) 0.2

Another molecule to check: Cc1cncc(-c2nc(CC(=O)NC(C)c3ccccc3)no2)c1 (centres unmarked) 1.58

Another molecule to check: Cc1nc(-c2nc(CC(=O)NC(C)c3ccccc3)no2)co1 (centres unmarked) 2.51

Another molecule to check: Cc1nc(-c2nc(CC(=O)NC(C)c3ccccc3)no2)cs1 (centres unmarked) 0.501

Another molecule to check: Cc1ccc(-c2nc(CC(=O)NC(C)c3ccccc3)no2)o1 (centres unmarked) 0.158

Another molecule to check: Cc1ccc(-c2nc(CC(=O)NC(C)c3ccccc3)no2)cn1 (centres unmarked) 3.16

Another molecule to check: Cc1ccc(-c2nc(CC(=O)NC(C)c3ccccc3)no2)nc1C (centres unmarked) 3.16

Another molecule to check: Cc1nonc1Cc1nc(CC(=O)NC(C)c2ccccc2)no1 (centres unmarked) 3.98

Another molecule to check: CC(C)c1ccc(-c2nc(CC(=O)NC(C)c3ccccc3)no2)s1 (centres unmarked) 1.58

Another molecule to check: Cc1cc(-c2nc(CC(=O)NC(C)c3ccccc3)no2)on1 (centres unmarked) 2.51

Another molecule to check: Cc1nc2cc(-c3nc(CC(=O)NC(C)c4ccccc4)no3)ccc2o1 (centres unmarked) 1.58

Another molecule to check: Cc1noc(C(C)NC(=O)Nc2cccc(-c3ccccc3)c2)n1 (centres unmarked) 2.51

Another molecule to check: Cc1ccc(-c2nc(CC(=O)NC(C)c3ccccc3)no2)s1 (centres unmarked) 0.2

Another molecule to check: CCc1nc(-c2nc(CC(=O)NC(C)c3ccccc3)no2)co1 (centres unmarked) 2

Another molecule to check: CCn1nc(-c2nc(CC(=O)NC(C)c3ccccc3)no2)cc1C (centres unmarked) 2

Another molecule to check: Cc1ncc(-c2nc(CC(=O)NC(C)c3ccccc3)no2)s1 (centres unmarked) 3.98

Measured values drawn from paper PMC12775434 for this set.
